# System: Rattus norvegicus
# experiment description: Reduction in blood pressure of rats, 2 hr after 0.03 mmol/kg p.o. administration
# Type: functional
measured metric: Decrease in blood pressure (%)
Reply with just the number (in %).

CCO/C(O)=C1\C(COCCc2cccnc2)=NC(C)=C(C(=O)OC)C1c1cccc([N+](=O)[O-])c1.Cl (stereo not drawn): 40
CCO/C(O)=C1\C(COCc2cccnc2)=NC(C)=C(C(=O)OC)C1c1cccc([N+](=O)[O-])c1.Cl (stereo not drawn): 18
CCOC(=O)C1=C(COc2cccnc2)NC(C)=C(C(=O)OC)C1c1cccc([N+](=O)[O-])c1.Cl (stereo not drawn): 40
CCO/C(O)=C1\C(Cn2ccnc2)=NC(C)=C(C(=O)OC(C)C)C1c1cccc([N+](=O)[O-])c1.Cl (stereo not drawn): 21
CCO/C(O)=C1\C(C)=NC(Cn2ccnc2)=C(C(=O)OC)C1c1ccccc1OC(F)F (stereo not drawn): 48

Could you tell me which Decrease in blood pressure is on file for CCO/C(O)=C1\C(Cn2ccnc2)=NC(C)=C(C(=O)OC)C1c1ccccc1[N+](=O)[O-] (stereo not drawn) ?
59

Could you tell me which Decrease in blood pressure is on file for CCO/C(O)=C1\C(C)=NC(Cn2ccnc2)=C(C(=O)OC)C1c1cccc(C(F)(F)F)c1Cl (stereo not drawn) ?
16

Could you tell me which Decrease in blood pressure is on file for CCO/C(O)=C1\C(COCCn2ccnc2)=NC(C)=C(C(=O)OC)C1c1cccc([N+](=O)[O-])c1.Cl (stereo not drawn) ?
56
